Reference source: ChEMBL document CHEMBL1125690

Reported pIC50 for target or system Thymidylate synthase (Mus musculus, UniProt P07607), by entry.
pIC50: −log10 of the molar value.
RECORDED METRIC: pIC50

The examples below pair each entry with its known result.
| SMILES REPRESENTATION | pIC50 |
| --- | --- |
| CN(Cc1ccc2nc(CO)nc(O)c2c1)c1cnc(C(=O)N[C@H](CCC(=O)O)C(=O)O)s1 | 6.31 |
| Cc1nc(O)c2cc(CN(CCO)c3ccc(C(=O)N[C@H](CCC(=O)O)C(=O)O)s3)ccc2n1 | 5.92 |
| CCN(Cc1ccc2nc(C)nc(O)c2c1)c1nnc(C(=O)N[C@H](CCC(=O)O)C(=O)O)s1 | 6.03 |

[a] CCN(Cc1ccc2nc(CO)nc(O)c2c1)c1ccc(C(=O)N[C@H](CCC(=O)O)C(=O)O)s1
[b] Cc1nc(O)c2cc(CN(CCF)c3ccc(C(=O)N[C@H](CCC(=O)O)C(=O)O)s3)ccc2n1
[c] Cc1nc(O)c2cc(CN(CCCO)c3ccc(C(=O)N[C@H](CCC(=O)O)C(=O)O)s3)ccc2n1
INPUT: Ascending by pIC50, please. Rank them, then answer with their labels in that order.
OUTPUT: c, a, b
